Reference source for all entries: patent US12005056B2

- assay-info: Comparative pharmacokinetics versus reference compounds, dog
- conditions-used: dog, in vivo, iv, 1 mg/kg
property-label: Cmax
Reply with the number and its unit after it.

Item under review: COc1ccc([C@H](C)NC(=O)N(O)C2CCN(C)CC2)c2ccccc12 [Reference 2] . Reported Cmax? 1520 ng/mL

* * *

- assay-info: Water solubility testing
property-label: solubility

Item under review: COc1ccc(C(C)NC(=O)N(C)C2CCN(C)CC2(C)C)c(Cl)c1Cl (stereo not shown) [free base] . Reported solubility? < 2000 µg/mL

* * *

- assay-info: Comparative pharmacokinetics versus reference compounds, rat
- conditions-used: rat, plasma, iv, 3 mg/kg
property-label: half-life (h)
Answers are plain numbers, in h.

Item under review: COc1ccc([C@H](C)NC(=O)N(O)C2CCN(C)CC2)c2ccccc12 [Reference 2] . Reported half-life? 5.8

* * *

- assay-info: Comparative pharmacokinetics versus reference compounds, dog
- conditions-used: dog, in vivo, po, 2 mg/kg
property-label: Vd/F (L/kg)
Give bare numbers, in L/kg.

Item under review: COc1ccc([C@H](C)NC(=O)N(O)C2CCN(C)CC2)c2ccccc12 [Reference 2] . Reported Vd/F? 0.9

* * *

- assay-info: Comparative pharmacokinetics versus reference compounds, rat
- conditions-used: rat, plasma, iv, 3 mg/kg
property-label: Cmax (ng/mL)
Give bare numbers, in ng/mL.

Item under review: COc1ccc([C@H](C)NC(=O)N(O)C2CCN(C)CC2)c2ccccc12 [Reference 2] . Reported Cmax? 1220

* * *

- assay-info: Comparative pharmacokinetics versus reference compounds, rat
- conditions-used: rat, plasma, po, 3 mg/kg
property-label: half-life (h)
Numbers only, in h.

Item under review: COc1ccc([C@H](C)NC(=O)N(O)C2CCN(C)CC2)c2ccccc12 [Reference 2] . Reported half-life? 6.1

* * *

- assay-info: Comparative pharmacokinetics versus reference compounds, rat
- conditions-used: rat, plasma, po, 3 mg/kg
property-label: Vd/F
Reply with the number and its unit after it.

Item under review: COc1ccc([C@H](C)NC(=O)N(O)C2CCN(C)CC2)c2ccccc12 [Reference 2] . Reported Vd/F? 3.3 L/kg

* * *

- assay-info: Comparative pharmacokinetics versus reference compounds, rat
- conditions-used: rat, plasma, po, 3 mg/kg
property-label: tmax (h)
One number for each entry, in h.

Item under review: COc1ccc([C@H](C)NC(=O)N(O)C2CCN(C)CC2)c2ccccc12 [Reference 2] . Reported tmax? 6

* * *

- assay-info: Comparative pharmacokinetics versus reference compounds, rat
- conditions-used: rat, brain/plasma, iv
property-label: Kp at 2 h
Answers are plain numbers.

Item under review: COc1ccc([C@H](C)NC(=O)N(O)C2CCN(C)CC2)c2ccccc12 [Reference 2] . Reported Kp at 2 h? 0.1

* * *

- assay-info: Comparative pharmacokinetics versus reference compounds, rat
- conditions-used: rat, plasma, po, 3 mg/kg
property-label: Cmax
Reply with the number and its unit after it.

Item under review: COc1ccc([C@H](C)NC(=O)N(O)C2CCN(C)CC2)c2ccccc12 [Reference 2] . Reported Cmax? 481 ng/mL
